Every entry's value here was drawn from ChEMBL document CHEMBL2413006.

pKi: recorded values
- Target Entity: Hypoxanthine-guanine phosphoribosyltransferase (Homo sapiens)
- Sequence (P00492 whole entry): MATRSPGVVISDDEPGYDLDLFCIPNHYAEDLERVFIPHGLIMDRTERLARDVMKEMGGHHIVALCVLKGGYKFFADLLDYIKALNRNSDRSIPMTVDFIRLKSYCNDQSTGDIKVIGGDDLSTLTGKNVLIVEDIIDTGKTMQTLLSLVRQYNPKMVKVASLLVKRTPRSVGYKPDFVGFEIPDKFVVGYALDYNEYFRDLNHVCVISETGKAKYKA
- Test Name: Inhibition of human HGPRT using xanthine/PRPP assessed as xanthine/guanine conversion to […]guanosine-5'-monophosphate by spectrophotometry in presence of PRPP
pKi: −log10 of the molar value.

Field: example entries. Status: answers known.
O=c1[nH]cnc2c(CNCCP(=O)(O)O)c[nH]c12 :: < 5.00
O=c1[nH]cnc2c(CNCCCCCP(=O)(O)O)c[nH]c12 :: < 5.00
O=c1[nH]cnc2c(CN[C@H](CO)CC(F)(F)P(=O)(O)O)c[nH]c12 :: < 5.00
Nc1nc2c(CN[C@H](CO)COP(=O)(O)O)c[nH]c2c(=O)[nH]1 :: < 5.00

Look at this compound and give its reported pKi. `Nc1nc2c(CN[C@@H](CO)COP(=O)(O)O)c[nH]c2c(=O)[nH]1` < 5.00

Look at this compound and give its reported pKi. `Nc1nc2c(CN[C@H](CO)CC(F)(F)P(=O)(O)O)c[nH]c2c(=O)[nH]1` < 5.00

Look at this compound and give its reported pKi. O=c1[nH]cnc2c(CNCC(O)CP(=O)(O)O)c[nH]c12 (racemic) < 5.00

Look at this compound and give its reported pKi. O=c1[nH]cnc2c(CNCC(CO)CP(=O)(O)O)c[nH]c12 (racemic) < 5.00

Look at this compound and give its reported pKi. `O=c1[nH]cnc2c(CCNCCP(=O)(O)O)c[nH]c12` < 5.00

Look at this compound and give its reported pKi. `O=c1[nH]cnc2c(CN[C@H](CO)[C@H](O)COP(=O)(O)O)c[nH]c12` < 5.00
